experiment: Particle size and polydispersity index of nanoparticle compositions (Zetasizer Nano ZS); type: physicochemical; settings: Table 17-1
measured endpoint: PDI

INSERT INTO results (compound, result) VALUES
  ('CCCCCCCCCCCCN(CCCO)CCCCCCCCCCCC [Compound 17-12, 3-(Didodecylamino)propan-1-ol]', 0.148),
  ('CCCCC/C=C\C/C=C\CCCCCCCCN(CCO)CCCCCCCCCCCC [Compound 17-4]', 0.154);

Let us move to another entry and its PDI.
[ask] Which value of PDI has been reported for CCCCC/C=C\C/C=C\CCCCCCCCN(CCO)CCCCCCCCCCCCCCCCCC [Compound 17-6] in the records?
[reply] 0.117

====

assay: Particle size and polydispersity index of nanoparticle compositions (Zetasizer Nano ZS); type: physicochemical; conditions: Table 1b
Each item that follows carries a reported PDI.

[ask] Which value of PDI has been reported for `CCCCCCCCCN(CCCOC(=O)CCCCC)CCC(=O)N1CCN(C(=O)CCN(CCCCCCCCC)CCN(CCCCCCCCC)CCCCCCCCC)CC1` in the records?
[reply] 0.14

[ask] Which value of PDI has been reported for CCCCCCCCCN(CCCC(=O)OCCCCC)CCC1CCN(C(=O)CN(CCCCCCCCC)CCN(CCCCCCCCC)CCCCCCCCC)C1 (stereo not drawn) in the records?
[reply] 0.17

[ask] Which value of PDI has been reported for CCCCCCCCCN(CCCCCCCCC)CCC1CCN(C(=O)CN(CCCCCCCCC)CCN(CCCCCCCCC)CCCCCCCCC)C1 (stereo not drawn) in the records?
[reply] 0.24

[ask] Which value of PDI has been reported for `CCCCCCCCCN(CCCCCCCCC)CCN(CCCCCCCCC)CC(=O)N1CCN(C(=O)CN(CCCCCCCCC)CCCOC(=O)CCCCC)CC1` in the records?
[reply] 0.24

[ask] Which value of PDI has been reported for `CCCCCCCCCN(CCCC(=O)OCCCCC)CCC(=O)N1CCN(C(=O)CCN(CCCCCCCCC)CCN(CCCCCCCCC)CCCCCCCCC)CC1` in the records?
[reply] 0.18

[ask] Which value of PDI has been reported for `CCCCCCCCCN(CCCCCCCCC)CCN(CCCCCCCCC)CC(=O)N1CCN(C(=O)CN(CCCC(=O)OCCCCC)CCCC(=O)OCCCCC)CC1` in the records?
[reply] 0.22

[ask] Which value of PDI has been reported for `CCCCCCCCCN(CCCCCC(=O)OCCC)CCC1CCN(C(=O)CN(CCCCCCCCC)CCN(CCCCCCCCC)CCCCCCCCC)CC1` in the records?
[reply] 0.23

[ask] Which value of PDI has been reported for `CCCCCCCCCN(CCCOC(=O)CCCCC)CCCC1CCN(C(=O)CCN(CCCCCCCCC)CCN(CCCCCCCCC)CCCCCCCCC)CC1` in the records?
[reply] 0.21

[ask] Which value of PDI has been reported for `CCCCCCCCCN(CCCC(=O)OCCCCC)CCN(CCCCCCCCC)CC(=O)N1CCN(C(=O)CN(CCCCCCCCC)CCCC(=O)OCCCCC)CC1` in the records?
[reply] 0.18

====

assay: Encapsulation efficiency of RNA (QUANT-IT RIBOGREEN RNA assay); type: physicochemical; conditions: Table 1; rows without footnote mark
Each item that follows carries a reported EE (%).
Give the number; % is assumed, so skip it.

Previously resolved entries follow.
INSERT INTO assay_data (molecule, measured_endpoint, numeric_readout) VALUES
  ('CCCCCCCCCCCCN(CCCCCCCCCCCC)CC(=O)N1CCN(C(=O)CN(CCCCCCCCCCCC)CCN(CCCCCCCCC)CCCCCCCCC)CC1', 'EE (%)', 99.5),
  ('CCCCCCCCCCCCN(CCCCCCCCCCCC)CCN(CCCCCCCCC)CC(=O)N1CCN(C(=O)CN(CCCCCCCCC)CCCCCCCCC)CC1', 'EE (%)', 98.9),
  ('CCCCCCCCCN(CCCCCCCCC)CCC(=O)N1CCN(C(=O)CCN(CCCCCCCCC)CCN(CCCCCCCCC)CCCCCCCCC)CC1', 'EE (%)', 97.5),
  ('CCCCCCCCCCCCN(CCCCCCCCCCCC)CCN1CCN(CCN(CCCCCCCCC)CCN(CCCCCCCCC)CCCCCCCCC)CC1', 'EE (%)', 97.2),
  ('CCCCCCCCCCCCN(CCCCCCCCCCCC)CCN1CCN(CCN(CCCCCC)CCN(CCCCCC)CCCCCC)CC1', 'EE (%)', 96.6),
  ('CCCCCCCC/C=C\CCCCCCCCN(CCCCCCCC/C=C\CCCCCCCC)CCN1CCN(CCN(CCCCCCCCCCCC)CCN(CCCCCCCCCCCC)CCCCCCCCCCCC)CC1', 'EE (%)', 80.2),
  ('CCCCC/C=C\C/C=C\CCCCCCCCN(CCCCCCCCCCCC)CCN1CCN(CCN(CCCCCCCCCCCC)CCN(CCCCCCCCCCCC)CCCCCCCCCCCC)CC1', 'EE (%)', 97.9),
  ('CCCCCCCCCN(CCCCCCCCC)CCN(CCCCCCCCC)CC(=O)N1CC2CC1CN2C(=O)CN(CCCCCCCCC)CCCCCCCCC (stereo not shown)', 'EE (%)', 97.1);

[ask] Which value of EE (%) has been reported for CCCCCCCCCCCCN(CCCCCCCCCCCC)CCN(CCCCCCCCCCCC)CC(=O)N1CC2CC1CN2C(=O)CN(CCCCCCCCC)CCCCCCCCC (stereo not shown) in the records?
[reply] 99.1

[ask] Which value of EE (%) has been reported for `CCCCCCCCCCCCCCN(CCCCCCCCCCCCCC)CCN(CCCCCCCCCCCCCC)CCN1CCN(CCN(CCCCCCCCCCCC)CCCCCCCCCCCC)CC1` in the records?
[reply] 77.5

====

assay: Particle size and polydispersity index of nanoparticle compositions (Zetasizer Nano ZS); format: physicochemical; conditions: Table 1; rows without footnote mark (lipid:DOPE:cholesterol:PEG-DMG 40:20:38.5:1.5, Luc mRNA; MC3 standard formulation)
Each item that follows carries a reported Size (nm).
Write the figure, then the unit, nothing else.

INSERT INTO results (item_smiles, result) VALUES
  ('CCCCCCCCCCCCN(CCCCCCCCCCCC)CCN(CCCCCCCCCCCC)CCN1CCN(CCN(CCCCCCCCCCCC)CCCCCC(=O)OCCCCC)CC1', '87.8 nm'),
  ('CCCCCCCC/C=C\CCCCCCCCN(CCCCCCCC/C=C\CCCCCCCC)CCN1CCN(CCN(CCCCCCCCCCCC)CCN(CCCCCCCCCCCC)CCCCCCCCCCCC)CC1', '87.4 nm');

Let us move to another entry and its Size (nm).
[ask] Which value of Size (nm) has been reported for `CCCCCCCCCCCCN(CCCCCCCCCCCC)CCN(CCCCCCCCCCCC)CC(=O)N1CCN(C(=O)CN(CCCCCCCCCCCC)CCCCCCCCCCCC)CC1` in the records?
[reply] 87.4 nm

====

assay: Encapsulation efficiency of RNA (QUANT-IT RIBOGREEN RNA assay); format: physicochemical; conditions: Table 1; rows without footnote mark
Each item that follows carries a reported EE (%).
Give the number; % is assumed, so skip it.

Previously resolved entries follow.
INSERT INTO results (compound, numeric_readout) VALUES
  ('CCCCCCCCCCCCCCN(CCCCCCCCCCCCCC)CCN(CCCCCCCCCCCCCC)CCN1CCN(CCN(CCCCCCCCCCCCCC)CCCCCCCCCCCCCC)CC1', 83.6),
  ('CCCCCCCCCCCCN(CCCCCCCCCCCC)CCN(CCCCCCCCCCCC)CCN1CCN(CCN(CCCCCC)CCCCCC)CC1', 98.6),
  ('CCCCCCCCCN(CCCCCCCC(=O)OC)CCN(CCCCCCCCC)CC(=O)N1CCN(C(=O)CN(CCCCCCCCC)CCCCCCCCC)CC1', 97.5),
  ('CCCCCC=CCC=CCCCCCCCCC(CCCCCCCCC=CCC=CCCCCC)OC(=O)CCCN(C)C (stereo not drawn) [MC3, reference compound]', 97.70),
  ('CCCCCCCCCCCCN(CCCCCCCCCCCC)CCN(CCCCCCCCC)CC(=O)N1CCN(C(=O)CN(CCCCCCCCCCCC)CCCCCCCCCCCC)CC1', 99.2);

Let us move to another entry and its EE (%).
[ask] Which value of EE (%) has been reported for `CCCCCCCCCCCCCCN(CCCCCCCCCCCCCC)CC(=O)N1CCN(C(=O)CN(CCCCCCCCC)CCN(CCCCCCCCC)CCCCCCCCC)CC1` in the records?
[reply] 98.4

The reported numbers originate from patent US10195156B2.
